Organism: Cavia porcellus
Test: Antagonist activity expressed as binding constant, evaluated from the potency to stimulate Amylase release from guinea pig pancreatic acini
Where a SMILES comes first, the peptide text is derived from it. [ ]: non-standard residue; d: D form. The star is where a group is joined. Phe(4-SO3H) = N[C@@H](Cc1ccc(S(=O)(=O)O)cc1)C(=O)O; Nle = CCCC[C@H](N)C(=O)O; Orn = NCCC[C@H](N)C(=O)O; Cbz = O=C(OCc1ccccc1)*; Boc = CC(C)(C)OC(=O)*
endpoint_label: Kb (nM)
Give the value, in units of nM, as a plain number.

(Q) Would you mind telling me what Kb value was observed for CCCC[C@H](NC(=O)[C@H](Cc1ccc(S(=O)(=O)O)cc1)NC(=O)OC(C)(C)C)C(=O)NCC(=O)N[C@@H](Cc1c[nH]c2ccccc12)C(=O)N[C@@H](CCCNC(=O)OCc1ccccc1)C(=O)N[C@@H](CC(=O)O)C(N)=O (Boc-[Phe(4-SO3H)][Nle]GW[Orn](Cbz)D-NH2) ?
(A) 220

(Q) Which Kb is listed for CCCC[C@H](NC(=O)[C@H](Cc1ccc(S(=O)(=O)O)cc1)NC(=O)OC(C)(C)C)C(=O)NCC(=O)N[C@@H](Cc1c[nH]c2ccccc12)C(=O)N[C@@H](CCCNC(=O)OCc1ccccc1)C(=O)N[C@@H](CC(=O)O)C(=O)N[C@@H](Cc1ccccc1)C(N)=O (Boc-[Phe(4-SO3H)][Nle]GW[Orn](Cbz)DF-NH2) ?
(A) 490

(Q) Record request: Kb value, item CCCC[C@H](NC(=O)[C@H](Cc1ccc(S(=O)(=O)O)cc1)NC(=O)OC(C)(C)C)C(=O)NCC(=O)N[C@@H](Cc1c[nH]c2ccccc12)C(=O)N[C@@H](CCCNC(=O)OC(C)(C)C)C(=O)N[C@@H](CC(=O)O)C(=O)N[C@@H](Cc1ccccc1)C(N)=O (Boc-[Phe(4-SO3H)][Nle]GW[Orn](Boc)DF-NH2)
(A) 1100

(Q) Name the reported Kb value associated with the compound CC(C)(C)OC(=O)N[C@@H](Cc1c[nH]c2ccccc12)C(=O)N[C@@H](CCCNC(=O)OCc1ccccc1)C(=O)N[C@@H](CC(=O)O)C(=O)N[C@@H](Cc1ccccc1)C(N)=O (Boc-W[Orn](Cbz)DF-NH2)
(A) 570

----------
Assay: Agonist activity expressed as effective concentration that causes 50% stimulation of amylase release from guinea pig pancreatic acini;Not significant
Type: functional, Cavia porcellus
Where a SMILES comes first, the peptide text is derived from it. [ ]: non-standard residue; d: D form. The star is where a group is joined. Orn = NCCC[C@H](N)C(=O)O; Boc = CC(C)(C)OC(=O)*
endpoint_label: EC50 (µM)
Give a bare numeral; the unit µM is implied.

(Q) Fill blank: measured EC50 of the molecule CC(C)(C)OC(=O)N[C@@H](Cc1c[nH]c2ccccc12)C(=O)N[C@@H](CCCN)C(=O)N[C@@H](CC(=O)O)C(=O)N[C@@H](Cc1ccccc1)C(N)=O (Boc-W[Orn]DF-NH2) is ____.
(A) 13.8

----------
Target: Cholecystokinin receptor type A (Cavia porcellus, UniProt Q63931)
Sequence (Q63931 whole entry): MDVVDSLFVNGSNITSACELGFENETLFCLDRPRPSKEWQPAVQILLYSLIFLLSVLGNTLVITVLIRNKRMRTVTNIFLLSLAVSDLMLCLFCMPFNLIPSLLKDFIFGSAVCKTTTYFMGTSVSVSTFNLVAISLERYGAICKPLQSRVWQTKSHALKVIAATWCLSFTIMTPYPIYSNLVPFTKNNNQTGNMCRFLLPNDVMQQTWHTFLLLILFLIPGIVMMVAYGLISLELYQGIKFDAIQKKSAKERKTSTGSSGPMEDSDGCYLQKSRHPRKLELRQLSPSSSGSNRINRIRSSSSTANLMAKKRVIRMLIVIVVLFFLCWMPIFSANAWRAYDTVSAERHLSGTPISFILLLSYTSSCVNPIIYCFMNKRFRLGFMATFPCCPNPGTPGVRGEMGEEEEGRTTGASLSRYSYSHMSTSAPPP
Where a SMILES comes first, the peptide text is derived from it. [ ]: non-standard residue; d: D form. The star is where a group is joined. Phe(4-SO3H) = N[C@@H](Cc1ccc(S(=O)(=O)O)cc1)C(=O)O; sY = N[C@@H](Cc1ccc(OS(=O)(=O)O)cc1)C(=O)O; Nle = CCCC[C@H](N)C(=O)O; Orn = NCCC[C@H](N)C(=O)O; Cbz = O=C(OCc1ccccc1)*; Boc = CC(C)(C)OC(=O)*
endpoint_label: pKi
Lab note — pKi values are minus log10 of concentrations in M.

(Q) I have this compound here, CC(C)(C)OC(=O)N[C@@H](Cc1c[nH]c2ccccc12)C(=O)N[C@@H](CCCN)C(=O)N[C@@H](CC(=O)O)C(=O)N[C@@H](Cc1ccccc1)C(N)=O (Boc-W[Orn]DF-NH2) , and I need its recorded pKi.
(A) 4.85

(Q) Query (compound): CC(C)(C)OC(=O)NCCC[C@H](NC(=O)[C@H](Cc1c[nH]c2ccccc12)NC(=O)OC(C)(C)C)C(=O)N[C@@H](CC(=O)O)C(N)=O (Boc-Trp-[Orn](Boc)-Asp-NH2) ; field requested: pKi
(A) 4.54

(Q) // returns reported pKi for input CCCC[C@H](NC(=O)[C@H](Cc1ccc(S(=O)(=O)O)cc1)NC(=O)OC(C)(C)C)C(=O)NCC(=O)N[C@@H](Cc1c[nH]c2ccccc12)C(=O)N[C@@H](CCCNC(=O)OC(C)(C)C)C(=O)N[C@@H](CC(=O)O)C(=O)N[C@@H](Cc1ccccc1)C(N)=O (Boc-[Phe(4-SO3H)][Nle]GW[Orn](Boc)DF-NH2)
(A) 6.18

(Q) Which pKi is reported for this compound? CCCC[C@H](NC(=O)[C@H](Cc1ccc(OS(=O)(=O)O)cc1)NC(=O)OC(C)(C)C)C(=O)NCC(=O)N[C@@H](Cc1c[nH]c2ccccc12)C(=O)N[C@@H](CCCNC(=O)OCc1ccccc1)C(=O)N[C@@H](CC(=O)O)C(N)=O (Boc-[sY][Nle]GW[Orn](Cbz)D-NH2)
(A) 6.64

(Q) Can you look up the measured pKi of CC(C)(C)OC(=O)N[C@@H](Cc1c[nH]c2ccccc12)C(=O)N[C@@H](CCCN)C(=O)N[C@@H](CC(=O)O)C(N)=O (Boc-Trp-[Orn]-Asp-NH2) for me?
(A) 3.00

(Q) Could you share which pKi value was measured for CC(C)(C)OC(=O)N[C@@H](Cc1c[nH]c2ccccc12)C(=O)N[C@@H](CCCNC(=O)OCc1ccccc1)C(=O)N[C@@H](CC(=O)O)C(=O)N[C@@H](Cc1ccccc1)C(N)=O (Boc-W[Orn](Cbz)DF-NH2) ?
(A) 6.47

(Q) State the recorded pKi for this entry: CC(C)(C)OC(=O)N[C@@H](Cc1c[nH]c2ccccc12)C(=O)N[C@@H](CCCNC(=O)OCc1ccccc1)C(=O)N[C@@H](CC(=O)O)C(N)=O (Boc-Trp-[Orn](Cbz)-Asp-NH2)
(A) 6.70

(Q) I'd like to know its pKi. The compound in question is CC(C)(C)OC(=O)NCCC[C@H](NC(=O)[C@H](Cc1c[nH]c2ccccc12)NC(=O)OC(C)(C)C)C(=O)N[C@@H](CC(=O)O)C(=O)N[C@@H](Cc1ccccc1)C(N)=O (Boc-W[Orn](Boc)DF-NH2)
(A) 5.28
